tested on: erythroid progenitor cells (EPCs); experiment: Fetal hemoglobin (HbF) ELISA in day 7 erythroid progenitor cells; assay type: cell-based, human; conditions: Homo sapiens, Erythroid progenitor cell, HbF ELISA, day 7 EPCs, 5 days; read-out: EPC ELISA (pEC50 category) (converted);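 also: for fetal hemoglobin induction normalized to vehicle-treated cells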
Structures can show the parent of a compound that is named as a salt.
metric-name: EC50

compound="CCc1c(C#N)c(SC(C(N)=O)c2ccccc2)nc(N(C)Cc2ncc[nH]2)c1C#N (stereo not shown) [Example 364]" metric_name=EC50 recorded_value="< 316 nM"
compound="CCc1c(C#N)c(SC(C(N)=O)c2ccccc2)nc(N(C)CC(=O)N(C)CCO)c1C#N (stereo not shown) [Example 606]" metric_name=EC50 recorded_value="< 316 nM"
compound="CCc1c(C#N)c(SCc2ccccc2)nc(N2CCC(NC(=O)CN)CC2)c1C#N [Example 94, Trifluoroacetic Acid Salt]" metric_name=EC50 recorded_value="> 31600 nM"
compound="CCc1c(C#N)c(SC(C(N)=O)c2ccccc2)nc(N(C)CCn2cnnc2)c1C#N (stereo not shown) [Example 352]" metric_name=EC50 recorded_value="1000 to 31600 nM"
